# MEASURED_TARGET: T1, human IL-11 (human, UniProt P20809 22-199)
# T1 construct: bought from Invigate; also called hIL-11; hIL11
# T1 sequence: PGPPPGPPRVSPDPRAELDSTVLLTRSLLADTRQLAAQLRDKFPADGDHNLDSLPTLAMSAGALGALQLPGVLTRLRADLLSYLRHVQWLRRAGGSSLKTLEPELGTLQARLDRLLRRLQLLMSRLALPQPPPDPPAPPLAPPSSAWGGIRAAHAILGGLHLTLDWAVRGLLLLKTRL
# ASSAY_NOTES: SPR, antibody captured, IL-11 as analyte
OBSERVATION_TYPE: Kd

Worked cases, Kd given:
{"BINDER": "TPP-26292 (antibody, V domains shown, constant regions not restated) VH: EVQLLESGGGLVQPGGSLRLSCAASGFTFSSYGMHWVRQAPGKGLEWVSVISYDGSYKYYADSVKGRFTISRDNSKNTLYLQMNSLRAEDTAVYYCAAGVPDYWGQGTLVTVSS VL: QSVLTQPPSASGTPGQRVTISCTGSSSNIGAGYDVHWYQQLPGTAPKLLIYSNNERPSGVPDRFSGSKSGTSASLAISGLRSEDEADYYCAAWDESLNGPVFGGGTKLTVL", "Kd": "13 nM"}
{"BINDER": "TPP-26295 (antibody, V domains shown, constant regions not restated) VH: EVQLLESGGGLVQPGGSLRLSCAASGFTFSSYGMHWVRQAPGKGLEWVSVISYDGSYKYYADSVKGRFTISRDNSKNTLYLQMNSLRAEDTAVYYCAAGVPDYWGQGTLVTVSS VL: QSVLTQPPSASGTPGQRVTISCTGSSSNIGAGYDVHWYQQLPGTAPKLLIYSNNERPSGVPDRFSGSKSGTSASLAISGLRSEDEADYYCAAWDHSLNGPVFGGGTKLTVL", "Kd": "9.8 nM"}

Let's switch to this binder now.
Value of Kd reported for the binder TPP-26323 (antibody, V domains shown, constant regions not restated) VH: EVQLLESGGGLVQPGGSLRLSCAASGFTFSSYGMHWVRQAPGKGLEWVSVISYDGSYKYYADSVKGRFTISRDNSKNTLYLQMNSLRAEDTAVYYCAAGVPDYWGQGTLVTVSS VL: QSVLTQPPSASGTPGQRVTISCTGSSSNIGAGYDVHWYQQLPGTAPKLLIYSNNERPSGVPDRFSGSKSGTSASLAISGLRSEDEADYYCAAWDGSLNGPVFGGGTKLTVL is 10 nM
